Examples of compounds with documented viability at 48 h follow.
# experimental.details: Cytotoxicity against human THP-1 cells assessed as cell viability at higher concentrations incubated for 48 hrs by MTT assay
# Assay type: toxicity, cell-based
# assay.conditions: read-out: Activity
Peptide text beside a SMILES is read from it.

[[record]]
compound = "CC(C)C[C@H](NC(=O)[C@H](Cc1csc2ccccc12)NC(=O)[C@@H](Cc1ccccc1)NC(=O)[C@H](Cc1ccccc1)NC(=O)CNC(=O)[C@@H](N)CS)C(=O)N[C@@H](CCCNC(=N)N)C(=O)N[C@@H](CO)C(=O)N[C@@H](CS)C(=O)O"
measured_metric = "viability at 48 h"
recorded_result = "> 75%"


input: # query: viability at 48 h of entry CC(C)C[C@@H]1NC(=O)[C@H](Cc2c[nH]c3ccccc23)NC(=O)[C@H](Cc2ccc(O)cc2)NC(=O)[C@H](Cc2ccccc2)NC(=O)[C@H](CCCNC(=N)N)NC(=O)[C@H](CCCCN)NC(=O)[C@H](CCC(=O)O)NC(=O)[C@H](CO)NC(=O)[C@H](CCCNC(=N)N)NC1=O (cyclo(EKRFYWLRS))
output: > 75%
